Tested on: SARS-CoV-2
Test: Inhibitory activity of cytopathic effect (CPE) in HEK293T/ACE2-TMPRSS2 cells
Assay type: cell-based
Conditions: Severe acute respiratory syndrome coronavirus 2, HEK-293T, 72 h; 50% SARS-CoV-2 infected cell death inhibitory concentration; HEK293T/ACE2-TMPRSS2 cells; CellTiter-Glo 2.0 after 3 days culture; read-out: EC50
pEC50: −log10 of the molar value.
Use 1.0 when the recorded pEC50 is no lower than 8; use 0.0 when it is lower.

Some solved entries appear below for comparison.
COMPOUND: O=c1c2c(=O)n(-c3cnc4cc(F)ccn34)c(=O)n(-c3ccc(F)c(Cl)c3)c2cc2n1C[C@@H]1CCCN21 [Compound I-0628]
CAT: 0.0
//
COMPOUND: [2H]C([2H])([2H])O[C@@H]1CCN(c2cc3c(c(OC)n2)c(=O)n(-c2cncc(C)c2)c(=O)n3-c2ccc(F)c(Cl)c2)C1 [Compound I-0937]
CAT: 1.0

Query string: Threshold query (pEC50 >= 8) on Cn1cnc(Cn2c(=O)c3ncc(N4C[C@H]5C[C@@H]4CN5)nc3n(Cc3cc(F)c(F)c(F)c3)c2=O)n1 [Compound I-0684]
Result string: 0.0

Query string: Field entry: COc1nc(N2CC[C@@H](C#N)C2)cc2c1c(=O)n(-c1cncc(Cl)c1)c(=O)n2-c1ccc(F)c(Cl)c1 [Compound I-0936]
Result string: 1.0
